- measurementContext: rat, microsomes, 0.5 h, 0.5 µM
measuredAttribute: CLH (mL/min/kg)

I = O=C(COc1ccc2cc(Oc3ccccn3)ccc2n1)N1CCNCC1
II = O=C(COc1ccc2cc(Oc3ccc(C(F)(F)F)cn3)ccc2n1)N1CCCCC1
III = N#Cc1ccc(-c2ccc3c(ccc(=O)n3CC(=O)N3CCCCC3)c2)cc1
IV = O=C(COc1ccc2cc(Oc3ccccn3)ccc2n1)N1CCCCC1
input: Put the entries in order of CLH, starting with the largest number. Arrange the labels as the request states and list them.
output: IV, II, I, III
(IV: 2400 mL/min/kg, II: 917 mL/min/kg, I: 200 mL/min/kg, III: 100 mL/min/kg)
